Assay: Single-dose PK study in mice
Conditions: mouse, in vivo; male ICR mice, oral gavage 10 mg/kg, plasma; read-out: Maximum plasma concentration Cmax
experimental_readout: Cmax (µg/mL)
The figure you give is taken to be in µg/mL; do not add the unit.

Query: Value lookup for Cmax; key = COc1cc(C)c2[nH]ccc2c1CN1CCC2(CC(=C(F)F)C2)C[C@H]1c1ccc(C(=O)O)cc1 (stereo partly shown) [Compound 1]
Reply: 1.53

###

Experiment: Single-dose PK study in mice
Details: mouse, in vivo; male ICR mice, oral gavage 10 mg/kg, plasma; read-out: Area under the curve AUC0-24h
experimental_readout: AUC(0-t) at 24 h (ng·h/mL)
The figure you give is taken to be in ng·h/mL; do not add the unit.

Query: Value lookup for AUC(0-t) at 24 h; key = COc1cc(C)c2[nH]ccc2c1CN1CCC2(CC(=C(F)F)C2)C[C@H]1c1ccc(C(=O)O)cc1 (stereo partly shown) [Compound 1]
Reply: 9230

###

System: normal human serum (NHS)
Experiment: Complement-mediated hemolytic activity assay
Type: cell-based
Settings: Erythrocyte, lysis of rabbit erythrocytes (RE) by NHS, GVB0 buffer with 10 mM Mg-EGTA, 37°C, read-out: Hemolysis IC50
experimental_readout: pIC50
Schema: pIC50 number; meaning minus log10 of the concentration expressed in molar units.

Below, 3 compounds whose answers are already recorded.
INSERT INTO results (compound, experimental_readout, value_reported) VALUES
  ('COc1cc(C)c2[nH]ccc2c1CN1CC[C@H](C=C2CC2)C[C@H]1c1ccc(C(=O)O)cc1 [Compound 41-P1]', 'pIC50', 7.46),
  ('COc1cc(C)c2[nH]ccc2c1CN1CCC(C=C(F)F)C[C@H]1c1ccc(C(=O)O)cc1Cl (stereo partly shown) [Compound 34-1]', 'pIC50', 7.21),
  ('Cc1cc(C)c2[nH]ccc2c1CN1CC[C@H](C=C(F)F)C[C@H]1c1ccc(C(=O)O)cc1 [Compound 37-P1]', 'pIC50', 7.68);

Next item in the queue.
Query: Value lookup for pIC50; key = COc1cc(C)c2[nH]ccc2c1CN1CC[C@H](C=C(F)F)C[C@H]1c1ccc(C(=O)O)cc1 [Compound 32-P1]
Reply: 7.03

###

Assay: Single-dose PK study in rats
Type: in vivo
Details: rat, in vivo; male SD rats, oral gavage 3 mg/kg, plasma; read-out: Area under the curve AUC0-24h
experimental_readout: AUC(0-t) at 24 h (ng·h/mL)
The figure you give is taken to be in ng·h/mL; do not add the unit.

Below, 2 compounds whose answers are already recorded.
INSERT INTO measurements (compound, experimental_readout, value_reported) VALUES
  ('COc1cc([C@@H]2C[C@@H](C=C(F)F)CCN2Cc2c(OC)cc(C)c3[nH]ccc23)ccc1C(=O)O [Compound 36-P1]', 'AUC(0-t) at 24 h', 4500),
  ('COc1cc(C)c2[nH]ccc2c1CN1CCC2(CC(=C(F)F)C2)C[C@H]1c1ccc(C(=O)O)cc1 (stereo partly drawn) [Compound 1]', 'AUC(0-t) at 24 h', 8320);

Next item in the queue.
Query: Value lookup for AUC(0-t) at 24 h; key = COc1cc(C)c2[nH]ccc2c1CN1CC[C@H](C=C(F)F)C[C@H]1c1ccc(C(=O)O)cc1C (single isomer, unassigned) [Compound 33-P1]
Reply: 10700
